Below: a set of entries, each annotated with reported thermal stability score.
- Test system: HeLa Kyoto;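 also: synchronized HeLa Kyoto cells, proteins quantified by TMT10plex mass spectrometry, three biological replicates, mitosis taken 0.5 h after nocodazole release, G1/S directly after double thymidine block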
- Procedure Text: thermal stability score vs G1/S (z-score of summed log2 fold changes over temperatures); higher = more thermally stable than in G1/S
- Condition Description: cell cycle stage: early G1 (4.5 h after nocodazole release)
Keep it simple and answer with nothing but the number.

| Sequence Content | Recorded Measurement |
| --- | --- |
| MTDGDYDYLIKLLALGDSGVGKTTFLYRYTDNKFNPKFITTVGIDFREKRVVYNAQGPNGSSGKAFKVHLQLWDTAGQERFRSLTTAFFRDAMGFLLMFDLTSQQSFLNVRNWMSQLQANAYCENPDIVLIGNKADLPDQREVNERQARELADKYGIPYFETSAATGQNVEKAVETLLDLIMKRMEQCVEKTQIPDTVNGGNSGNLDGEKPPEKKCIC [RAB27B] | -1.38 |

INPUT: Please look up its thermal stability score: MLSESSSFLKGVMLGSIFCALITMLGHIRIGHGNRMHHHEHHHLQAPNKEDILKISEDERMELSKSFRVYCIILVKPKDVSLWAAVKETWTKHCDKAEFFSSENVKVFESINMDTNDMWLMMRKAYKYAFDKYRDQYNWFFLARPTTFAIIENLKYFLLKKDPSQPFYLGHTIKSGDLEYVGMEGGIVLSVESMKRLNSLLNIPEKCPEQGGMIWKISEDKQLAVCLKYAGVFAENAEDADGKDVFNTKSVGLSIKEAMTYHPNQVVEGCCSDMAVTFNGLTPNQMHVMMYGVYRLRAFGHIFNDALVFLPPNGSDND [C1GALT1C1]
OUTPUT: -0.0972
